Would you kindly list IC50 for each of these compounds?
- measured-on: haematopoietic prostaglandin D synthase (H-PGDS) (Homo sapiens, UniProt O60760)
- Construct: Full length human H-PGDS cDNA (Invitrogen Ultimate ORF IOH13026) was amplified by PCR; 6-His (N); TEV protease cleavage site (N); made in house; host or cells: E. coli BL21 (DE3*)
- Sequence (O60760 whole entry): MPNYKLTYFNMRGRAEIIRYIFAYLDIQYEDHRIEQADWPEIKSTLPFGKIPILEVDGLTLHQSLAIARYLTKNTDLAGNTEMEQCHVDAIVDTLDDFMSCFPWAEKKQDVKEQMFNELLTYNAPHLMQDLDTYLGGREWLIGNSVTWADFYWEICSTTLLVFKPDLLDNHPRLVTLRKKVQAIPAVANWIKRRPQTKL
- test-method-notes: H-PGDS RapidFire high throughput mass spectrometry assay (conversion of PGH2 to PGD2)
- Assay type: biochemical
- test-parameters: 10 nM H-PGDS, PGH2 formed in situ by COX-2 from arachidonic acid; four parameter curve fit; read-out: Potency Range (mean pIC50) (converted)

Query string: Form field: reported IC50 of CC(C)(O)[C@H]1CC[C@H](NC(=O)c2cnc3nc(NCC(F)(F)F)ccc3c2)CC1
Result string: 0.1 to 1 µM

Query string: Form field: reported IC50 of C[C@]1(O)C[C@@H](NC(=O)c2cnc3nc(C4CC4)ccc3c2)C1
Result string: 0.1 to 1 µM

Query string: Form field: reported IC50 of CC(C)(O)[C@H]1C[C@H](NC(=O)c2cnc3cc(C4CC4)ncc3c2)C1
Result string: 0.01 to 0.0794 µM

Query string: Form field: reported IC50 of CC(C)(O)[C@H]1CC[C@H](NC(=O)c2cnc3nc(N4CC(F)C4)ccc3c2)CC1
Result string: 0.01 to 0.0794 µM

Query string: Form field: reported IC50 of O=C(N[C@H]1CC[C@H](N2CC(F)(F)C2)CC1)c1cnc2nc(C3CC3)ccc2c1
Result string: 0.01 to 0.0794 µM

Query string: Form field: reported IC50 of CC(C)(O)[C@H]1C[C@H](NC(=O)c2cnc3nc(C4CC4)c(Cl)cc3c2)C1
Result string: < 0.01 µM

Query string: Form field: reported IC50 of COc1ncc2cc(C(=O)N[C@H]3CC[C@H](C(C)(C)O)CC3)cnc2n1
Result string: 0.1 to 1 µM

Query string: Form field: reported IC50 of C[C@H]1CCN1c1nc2ncc(C(=O)N[C@H]3C[C@](O)(C(F)(F)F)C3)cc2cc1Cl
Result string: < 0.01 µM
